Biological target: human SGLT1 (Homo sapiens)
Assay: Assay for inhibitory effects on human SGLT1 activity (uptake of methyl-α-D-glucopyranoside in CS1-5-11D cells)
Conditions: CHO-K1 cells stably expressing human SGLT1 (CS1-5-11D); 1 mM α-MG uptake, 37° C., 1 hour
Values of IC50 strictly less than 100 nM map to met, and values of at least 100 nM map to not met.

[in] hey, is IC50 for CC(C)c1[nH]nc(O[C@@H]2O[C@H](CO)[C@H](O)[C@H](O)[C@H]2O)c1Cc1ccc(CCCC(=O)NC(C)(C)C(=O)N2CCN(CCO)CC2)cc1 lower than 100 nM or not?
[out] met

[in] Hi there! Is IC50 for CC(C)c1[nH]nc(O[C@@H]2O[C@H](CO)[C@@H](O)[C@H](O)[C@H]2O)c1Cc1ccc(CCCS(=O)(=O)NCCN)cc1 below 100 nM, do you know?
[out] not met

[in] Record CC(C)c1[nH]nc(O[C@@H]2O[C@H](CO)[C@@H](O)[C@H](O)[C@H]2O)c1Cc1ccc(CCCS(=O)(=O)NC(C)(C)C(N)=O)cc1 : is its IC50 strictly below 100 nM?
[out] not met

[in] Field: below-cutoff. Rule: recorded IC50 strictly less than 100 nM. Subject: CC(C)c1[nH]nc(O[C@@H]2O[C@H](CO)[C@@H](O)[C@H](O)[C@H]2O)c1Cc1ccc(/C=C/C(=O)NC(C)(CO)CO)cc1
[out] not met

[in] hey, is IC50 for CC(C)c1[nH]nc(O[C@@H]2O[C@H](CO)[C@@H](O)[C@H](O)[C@H]2O)c1Cc1ccc(/C=C/C(=O)NC(CO)(CO)CO)cc1 lower than 100 nM or not?
[out] not met

[in] Input CC(C)c1[nH]nc(O[C@@H]2O[C@H](CO)[C@@H](O)[C@H](O)[C@H]2O)c1Cc1ccc(CCCC(=O)NC(C)(C)C(=O)NCCO)cc1 ; condition: IC50 strictly below 100 nM. Does it hold?
[out] met

###

Biological target: human SGLT1 (Homo sapiens, UniProt P13866)
Sequence (P13866 whole entry): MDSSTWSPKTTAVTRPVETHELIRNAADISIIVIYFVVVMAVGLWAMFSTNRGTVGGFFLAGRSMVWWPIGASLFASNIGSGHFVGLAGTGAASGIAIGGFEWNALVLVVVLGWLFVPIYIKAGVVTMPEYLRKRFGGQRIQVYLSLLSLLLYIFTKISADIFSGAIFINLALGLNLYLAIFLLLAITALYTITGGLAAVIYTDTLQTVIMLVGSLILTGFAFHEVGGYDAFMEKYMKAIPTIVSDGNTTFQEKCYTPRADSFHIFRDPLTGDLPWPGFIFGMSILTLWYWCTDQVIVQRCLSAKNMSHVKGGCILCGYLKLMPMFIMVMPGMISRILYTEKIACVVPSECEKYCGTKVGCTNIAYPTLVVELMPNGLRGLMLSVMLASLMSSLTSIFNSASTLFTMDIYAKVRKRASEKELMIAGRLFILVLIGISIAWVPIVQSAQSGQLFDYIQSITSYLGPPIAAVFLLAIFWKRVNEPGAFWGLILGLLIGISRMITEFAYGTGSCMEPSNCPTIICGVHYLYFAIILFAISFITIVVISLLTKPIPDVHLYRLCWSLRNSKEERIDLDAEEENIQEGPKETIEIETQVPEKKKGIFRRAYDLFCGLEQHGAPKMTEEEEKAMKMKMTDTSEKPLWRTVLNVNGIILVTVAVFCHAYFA
Assay: Assay for inhibitory effects on human SGLT1 activity (uptake of methyl-α-D-glucopyranoside in CS1-5-11D cells)
Details: CHO-K1 cells stably expressing human SGLT1 (CS1-5-11D); 1 mM α-MG uptake, 37° C., 1 hour
observationType: IC50 (nM)
Hi! Could you send only the number? It should be in nM, unit omitted.

# IC50 (compound: CC(C)c1[nH]nc(O[C@@H]2O[C@H](CO)[C@@H](O)[C@H](O)[C@H]2O)c1Cc1ccc(CCCC(=O)NC(C)(C)C(N)=O)cc1 ) is 24

Quick note, IC50 for CC(C)c1[nH]nc(O[C@@H]2O[C@H](CO)[C@H](O)[C@H](O)[C@H]2O)c1Cc1ccc(CCCC(=O)NC(C)(C)C(N)=O)cc1 landed at 174

For reference, reported IC50 for CC(C)c1[nH]nc(O[C@@H]2O[C@H](CO)[C@H](O)[C@H](O)[C@H]2O)c1Cc1ccc(CCCC(=O)NC(C)(C)C(=O)N2CCN(C)CC2)cc1 stands at 18

The compound listed as CC(C)c1[nH]nc(O[C@@H]2O[C@H](CO)[C@@H](O)[C@H](O)[C@H]2O)c1Cc1ccc(CCCC(=O)NCCCN(CCO)CCO)cc1 shows IC50 equal to 113

IC50 for CC(C)c1[nH]nc(O[C@@H]2O[C@H](CO)[C@@H](O)[C@H](O)[C@H]2O)c1Cc1ccc(CCCC(=O)NC(C)(C)C(=O)NCC(N)=O)cc1 is 96

IC50 reported for this compound CC(C)c1[nH]nc(O[C@@H]2O[C@H](CO)[C@H](O)[C@H](O)[C@H]2O)c1Cc1ccc(CCCC(=O)NC(C)(C)C(=O)N2CCNCC2)cc1 : 39

Short answer for CC(C)c1[nH]nc(O[C@@H]2O[C@H](CO)[C@@H](O)[C@H](O)[C@H]2O)c1Cc1ccc(CCCC(=O)NC(CO)(CO)CO)cc1 : IC50 was 12

Lookup result for CC(C)c1[nH]nc(O[C@@H]2O[C@H](CO)[C@@H](O)[C@H](O)[C@H]2O)c1Cc1ccc(/C=C/C(=O)NC(C)(C)C(N)=O)cc1 ; measured IC50: 431
